ASSAYED SYSTEM: CDC7/DBF4 (Cell division cycle 7-related protein kinase/Activator of S phase kinase) (Homo sapiens, UniProt O00311)
ASSAY DETAILS: Inhibition of N-terminal GST-fused full-length human CDC7 (1 to 574 end residues)/DBF4 (1 to 674 residues) expressed in baculovirus expression system using MCM2 as substrate preincubated with enzyme for 60 mins prior to 50 uM ATP addition by HTRF transcreener ADP assay
Catalogue of compounds with associated IC50
Please respond with the number in nM and leave the unit unwritten.

Reference set (3 entries):
{"COMPOUND": "Cc1n[nH]cc1-c1cc2nc([C@@H]3CCCCN3)[nH]c(=O)c2s1.Cl.Cl", "VALUE UNIT": "nM", "QUANTITATIVE RESULT": 0.41}
{"COMPOUND": "Cc1[nH]ncc1-c1cc2nc([C@@H]3CC4CCN3CC4)[nH]c(=O)c2s1 [SIMUROSERTIB]", "VALUE UNIT": "nM", "QUANTITATIVE RESULT": 0.54}
{"COMPOUND": "O=c1[nH]c([C@@H]2CCCCN2)nc2cc(-c3c[nH]nc3C(F)(F)F)sc12", "VALUE UNIT": "nM", "QUANTITATIVE RESULT": 0.72}

Now for another entry.
Query block: May I ask what IC50 has been recorded for Cc1n[nH]cc1-c1cc2nc(C34CC(CN3)C4)[nH]c(=O)c2s1 ?
Result block: 2.1
